I'd be grateful if you could share measured IC50 Ratio JAK2/JAK1 for these entries.
target: human JAK1 (a.a. 837-1142); experiment: In vitro JAK kinase assay (HTRF, phosphorylation of a biotinylated peptide), JAK1; assay type: biochemical; conditions: measured at 1 mM ATP; JAK2 IC50 / JAK1 IC50

Lookup: For the molecule N#CCC1(n2cc(-c3ncnc4[nH]ccc34)cn2)CN(C2CCN(C(=O)Nc3ccccc3F)CC2)C1 [Example 169] , what IC50 Ratio JAK2/JAK1 is on record?
Found: 5.5

Lookup: For the molecule COc1cccc(NC(=O)N2CCC(N3CC(CC#N)(n4cc(-c5ncnc6[nH]ccc56)cn4)C3)CC2)c1 [Example 181] , what IC50 Ratio JAK2/JAK1 is on record?
Found: 4.9

Lookup: For the molecule CC1CC(N2CC(CC#N)(n3cc(-c4ncnc5[nH]ccc45)cn3)C2)CCN1Cc1c(F)cccc1Cl (single isomer, unassigned) [Example 244] , what IC50 Ratio JAK2/JAK1 is on record?
Found: 1.8

Lookup: For the molecule N#CCC1(n2cc(-c3ncnc4[nH]ccc34)cn2)CN(C2CCN(C(=O)Cc3ccccc3)CC2)C1 [Example 109] , what IC50 Ratio JAK2/JAK1 is on record?
Found: 1.1
